Test system: MDA-MB-453
measurement_description: In vitro cytotoxicity assay (MTT)
Assay type: cell-based, human
protocol_conditions: Homo sapiens, MDA-MB-453, 144 h, 6 days incubation
IC50 values for the compounds below.
result_type: IC50 (nM)

structure_smiles_string: CC(C)c1cnn2c(NCc3ccc(-c4ccccn4)cc3)nc(NC3CCNCC3)nc12
result_units: nM
result_number: 3.11
--
structure_smiles_string: NCC1CCN(c2nc(NCc3ccc(-c4ccccn4)cc3)n3ncc(Br)c3n2)CC1
result_units: nM
result_number: 1.61
--
structure_smiles_string: CNCCN(C)c1nc(NCc2ccc(-c3ccccn3)cc2)n2ncc(Br)c2n1
result_units: nM
result_number: 3.66
--
structure_smiles_string: N[C@H]1CCN(c2nc(NCc3ccc(-c4ccccn4)cc3)n3ncc(Br)c3n2)C1
result_units: nM
result_number: 0.97
